Tested on: PC-3 prostate
experiment-description: NCI tumour cell line growth inhibition, 48 h
result-type: TGI

**Q:** Looking for the measured TGI of C=C1C2CCC3(CCC4C5(C)CCCC4(C=[N+](CCO)C5)C3C2)C1O (centres undefined) , can you help?
**A:** > 100 µM

**Q:** Which value of TGI has been reported for c1cc(CN2CCNCCNCCNCC2)cc(CN2CCNCCNCCNCC2)c1 in the records?
**A:** > 100 µM

**Q:** Fill blank: measured TGI of the compound CN1CCC/C1=C1/C(=O)N(c2ccccc2)N=C1c1ccc[nH]1 is ____.
**A:** > 100 µM

**Q:** Which TGI value is on record for O=C1/C(=C/c2ccccc2[N+](=O)[O-])COc2ccc(O)cc21 ?
**A:** 10.8 µM

**Q:** Find the recorded TGI belonging to CN1C(=NCCO)NS(=O)(=O)c2ccccc21 and report it.
**A:** > 100 µM

**Q:** Which TGI reading was recorded for the compound CNC(=O)N1N[C@H](c2ccccc2)[C@@H]1c1ccccc1 ?
**A:** 99.1 µM

**Q:** Form field: reported TGI of c1ccc(COC2C3COC(O3)C(OCc3ccccc3)C2OCc2ccccc2)cc1 (centres undefined)
**A:** > 100 µM

**Q:** Quick check: TGI of O=c1[nH]c(=S)[nH]c(-c2ccccc2)c1Cc1c(O)ccc2ccccc12 ?
**A:** > 100 µM

**Q:** Reported TGI for O=C1c2ccccc2C(=O)c2c1cc1c(c2[N+](=O)[O-])OCO1 : what is it?
**A:** 4.66 µM

**Q:** For the compound shown here, COc1ccc(-c2[nH]c3ccccc3c2/C=C(\C#N)S(=O)(=O)c2ccccc2)cc1 , give the reported TGI.
**A:** > 68.8 µM

**Q:** If you can, please state the reported TGI value of CCOC(=O)/C=C\C(C#N)(C#N)N=Cc1ccsc1 .
**A:** 22.7 µM

**Q:** Given the compound COC(=O)c1cc([N+](=O)[O-])cc([N+](=O)[O-])c1Cl , what is its reported TGI?
**A:** 3.91 µM

**Q:** Need TGI, item O=C1/C(=C/c2ccccc2O)N=C(c2ccccc2)N1c1cc(C(F)(F)F)ccc1Cl
**A:** > 100 µM

**Q:** Which value of TGI has been reported for Cn1c(C(=O)c2cccc3ccccc23)nc2ccccc21 in the records?
**A:** > 100 µM

====

Test system: MDA-MB-435
Classes to choose from: y (active), n (inactive)

**Q:** Hello, I am checking results. What call was entered for NCc1ccc(-c2nc(-c3ccc(Cl)c(O)c3)c(-c3ccncc3)[nH]2)cc1 ?
**A:** n

**Q:** What outcome does the record of this test show for Cn1c(C(=O)c2cccc3ccccc23)nc2ccccc21 ?
**A:** n

**Q:** // param item: CC(C)(C)c1cc(C(=O)O)c2c(c1)C(=O)OC2(c1ccccc1)c1ccccc1C(=O)O (configuration not stated) ; yields the recorded call
**A:** n

**Q:** For CCN(Cc1ccc(F)cc1)c1ccc(CO)c(C(F)(F)F)c1 , what call appears in the results of this test?
**A:** n

**Q:** What classification did Clc1ccc([I+]c2ccc(Cl)cc2Cl)c(Cl)c1 end up with in this test?
**A:** n

**Q:** So what was the verdict on COc1ccc(-c2c3c(N)c4c(nc3nc3c2c(C)nn3-c2ccccc2)CCCC4)cc1 in this test?
**A:** n

**Q:** Tell me the assay call for CC(C)N(Cc1ccc(F)cc1)c1ccc(CO)c(Cl)c1 please.
**A:** n

**Q:** Status in this test for N#Cc1cccc(Nc2ncc(-c3ccccc3)o2)c1 ?
**A:** n

**Q:** Dear all, I need the recorded test outcome for COc1cc(-c2ncn(/C=C\c3nnco3)n2)cc(C(F)(F)F)c1 , thank you.
**A:** y

**Q:** Which outcome did this test record for the compound COc1ccc2nc3cc(Cl)ccc3c(N3CCN(c4ccnc(N5CCN(C)CC5)n4)CC3)c2c1 ?
**A:** n

**Q:** Each compound tested received a call. Report the one for CC(=O)N(O)c1ccc(/C=C/c2ccccc2)cc1 .
**A:** n

**Q:** # outcome recorded in this test, key = N#CC1C(N)=NNC12Nc1ccccc1S2 (configuration not stated)
**A:** n

Values from PubChem BioAssay (NCI)
